Values compiled from patent US10221139B2.

- system_name: GASC1 (KDM4C, JMJD2C) (Homo sapiens, UniProt Q9H3R0)
- Sequence (Q9H3R0 1-349): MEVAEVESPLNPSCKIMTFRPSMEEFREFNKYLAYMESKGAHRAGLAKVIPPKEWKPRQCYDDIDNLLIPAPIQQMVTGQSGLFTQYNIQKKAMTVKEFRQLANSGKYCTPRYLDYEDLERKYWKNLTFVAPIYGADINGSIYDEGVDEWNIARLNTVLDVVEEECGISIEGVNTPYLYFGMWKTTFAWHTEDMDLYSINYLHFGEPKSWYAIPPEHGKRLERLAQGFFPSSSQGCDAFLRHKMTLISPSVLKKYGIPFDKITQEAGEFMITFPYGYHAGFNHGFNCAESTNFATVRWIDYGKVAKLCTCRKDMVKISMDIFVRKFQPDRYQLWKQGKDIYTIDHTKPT

[
  {
    "compound": "O=C(O)c1ccnc(CNCc2ccco2)c1",
    "IC50": "< 100 nM"
  },
  {
    "compound": "CCCCN1CCCC1CCNCc1cc(C(=O)O)ccn1 (centres unmarked)",
    "IC50": "< 100 nM"
  },
  {
    "compound": "CCN(CCN(C)C)C(=O)CNCc1cc(C(=O)OC)ccn1",
    "IC50": "< 100 nM"
  },
  {
    "compound": "CCCCCCCCCCCCCCCC(=O)OCC(COC(=O)c1ccnc(CNCC(=O)N(CC)CCN(C)C)c1)OC(=O)CCCCCCCCCCCCCCC (centres unmarked)",
    "IC50": "100 to 1000 nM"
  },
  {
    "compound": "CCN(CCN(C)C)C(=O)CNCc1cc(C(=O)Oc2ccc(C(C)(C)C)cc2)ccn1",
    "IC50": "< 100 nM"
  },
  {
    "compound": "CCN(CCN(C)C)C(=O)CNCc1cc(C(=O)OC(C)CC(C)=O)ccn1 (centres unmarked)",
    "IC50": "< 100 nM"
  },
  {
    "compound": "O=C(O)c1ccnc(CNCC(=O)N2CCCC2Cc2ccccc2)c1 (centres unmarked)",
    "IC50": "< 100 nM"
  },
  {
    "compound": "CCN(CC(=O)N1CCCCC1)Cc1cc(C(=O)O)ccn1",
    "IC50": "100 to 1000 nM"
  },
  {
    "compound": "O=C(O)c1ccnc(CNCCCN2CCC(Cc3ccccc3)CC2)c1",
    "IC50": "< 100 nM"
  },
  {
    "compound": "CCN(CCN(C)C)C(=O)CNCc1cc(C(=O)OC(CNC(=O)C(F)(F)F)CC(=O)OC(C)C)ccn1 (centres unmarked)",
    "IC50": "100 to 1000 nM"
  },
  {
    "compound": "O=C(O)c1ccnc(CN[C@@H]2CCN(CCCc3ccccc3)C2)c1",
    "IC50": "≥ 1000 nM"
  },
  {
    "compound": "CCOC(=O)c1ccccc1OC(=O)c1ccnc(CNCC(=O)N(CC)CCN(C)C)c1",
    "IC50": "< 100 nM"
  },
  {
    "compound": "CCN(CCN(C)C)C(=O)CNCc1cc(C(=O)Oc2c(OC(C)C)cccc2OC(C)C)ccn1",
    "IC50": "100 to 1000 nM"
  },
  {
    "compound": "O=C(CNCc1cc(C(=O)O)ccn1)NC1CCN(Cc2ccc(-c3ccccc3)o2)CC1",
    "IC50": "< 100 nM"
  },
  {
    "compound": "CCN(CCN(C)C)C(=O)CNCc1cc(C(=O)Nc2ncco2)ccn1",
    "IC50": "< 100 nM"
  },
  {
    "compound": "CN(C)CCNCc1cc(C(=O)O)ccn1",
    "IC50": "< 100 nM"
  },
  {
    "compound": "CSCCNCc1cc(C(=O)O)ccn1",
    "IC50": "< 100 nM"
  },
  {
    "compound": "CCN(CCN(C)C)C(=O)CNCc1cc(C(=O)Nc2nnc(C)o2)ccn1",
    "IC50": "< 100 nM"
  },
  {
    "compound": "O=C(O)c1ccnc(CNCC(=O)N2CCCC(Cc3nc4ccccc4[nH]3)C2)c1 (centres unmarked)",
    "IC50": "< 100 nM"
  },
  {
    "compound": "C=CCN(CC=C)C(=O)CNCc1cc(C(=O)O)ccn1",
    "IC50": "< 100 nM"
  }
]
